system-tested: human adrenergic-α2B receptor (Homo sapiens)
Construct: expressed in transfected cells; membrane preparation
Sequence (P18089 whole entry): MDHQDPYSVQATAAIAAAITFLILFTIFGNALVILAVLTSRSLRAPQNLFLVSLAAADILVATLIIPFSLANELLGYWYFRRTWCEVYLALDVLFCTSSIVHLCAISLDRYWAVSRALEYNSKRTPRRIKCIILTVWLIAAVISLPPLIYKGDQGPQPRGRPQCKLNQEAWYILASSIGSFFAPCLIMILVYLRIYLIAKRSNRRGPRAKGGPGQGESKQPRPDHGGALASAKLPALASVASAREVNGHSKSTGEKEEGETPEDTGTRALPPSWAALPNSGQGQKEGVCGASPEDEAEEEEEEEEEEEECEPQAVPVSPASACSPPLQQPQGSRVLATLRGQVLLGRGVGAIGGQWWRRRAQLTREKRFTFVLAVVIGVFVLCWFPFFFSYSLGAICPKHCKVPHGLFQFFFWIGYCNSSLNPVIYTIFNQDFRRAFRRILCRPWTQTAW
protocol: Radioligand binding experiment for α2B-adrenoceptor ([3H]-raulwolscine competition, CHO cell membranes)
condition-info: [3H]raulwolscine 1 nM, membranes of CHO cells transfected with human α2B receptor; read-out: pIC50 α2B (converted)
assay-endpoint: IC50 (nM)

>  <smiles-repr>
C/C(=C\c1ccccc1)CN1CCC(n2ncn(-c3ccc(CN4C(=O)c5ccccc5C4=O)cc3)c2=O)CC1

>  <system-tested>
human adrenergic-α2B receptor (Homo sapiens)

>  <endpoint-unit>
nM

>  <IC50>
39.8

$$$$

I. O=c1n(CCN2CCOCC2)cnn1CC1CCN(CCOc2ccccc2)CC1
II. O=c1n(-c2ccc(NCCN3CCOCC3)cc2)cnn1CC1CCN(CCOc2ccccc2)CC1
III. CN(C)CCNc1ccc(-n2cnn(CCC3CCN(CCOc4ccccc4)CC3)c2=O)cc1
Rank the 3 compounds: largest IC50 first, smallest last. Arrange the labels as the request states and list them. I, II, III

====

system-tested: human adrenergic-α2C receptor (Homo sapiens, UniProt P18825)
Construct: expressed in transfected cells; membrane preparation
Sequence (P18825 1-462): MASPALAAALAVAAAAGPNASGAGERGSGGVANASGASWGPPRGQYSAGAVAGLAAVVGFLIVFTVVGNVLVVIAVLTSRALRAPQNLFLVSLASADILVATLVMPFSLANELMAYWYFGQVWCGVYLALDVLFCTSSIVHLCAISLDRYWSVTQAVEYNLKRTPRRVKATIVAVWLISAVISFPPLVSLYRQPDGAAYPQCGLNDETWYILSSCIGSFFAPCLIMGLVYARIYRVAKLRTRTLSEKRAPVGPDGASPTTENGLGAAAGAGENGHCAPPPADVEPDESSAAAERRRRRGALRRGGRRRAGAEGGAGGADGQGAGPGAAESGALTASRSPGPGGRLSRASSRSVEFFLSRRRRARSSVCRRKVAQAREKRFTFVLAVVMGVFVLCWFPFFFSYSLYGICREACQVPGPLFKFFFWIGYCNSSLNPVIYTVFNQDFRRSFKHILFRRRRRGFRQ
protocol: Radioligand binding experiment for α2C-adrenoceptor ([3H]-raulwolscine competition, CHO cell membranes)
condition-info: [3H]raulwolscine 1 nM, membranes of CHO cells transfected with human α2C receptor; read-out: pIC50 α2C (converted)
assay-endpoint: IC50 (nM)

Field: example entries. Status: answers known.
>  <molecule>
C/C(=C\c1ccccc1)CN1CCC(Cn2ncn(-c3ccc(NCCN(C)C)cc3)c2=O)CC1

>  <endpoint-unit>
nM

>  <IC50>
10

$$$$
>  <molecule>
CC(NCCOc1ccccc1)C(C)n1ncn(-c2ccc(N3CCN(c4ccc(O)cc4)CC3)cc2)c1=O (racemic) [compound 5]

>  <endpoint-unit>
nM

>  <IC50>
10

$$$$
>  <molecule>
C/C(=C\c1ccccc1)CN1CCC(n2cnn(Cc3ccc(CN4CCOCC4)cc3)c2=O)CC1

>  <endpoint-unit>
nM

>  <IC50>
79.4

$$$$
>  <molecule>
COc1ccccc1C1CCN(c2ccc(-n3cnn(CCNCCOc4ccccc4)c3=O)cc2)C1 (centres unmarked)

>  <endpoint-unit>
nM

>  <IC50>
100

$$$$
>  <molecule>
O=c1n(-c2ccc(CN3CCN(c4ccccc4)CC3)cc2)cnn1CCNCCOc1ccccc1

>  <endpoint-unit>
nM

>  <IC50>
25.1

$$$$

a. C/C(=C\c1ccccc1)CN1CCC(n2cnn(-c3ccc(CN)cc3)c2=O)CC1
b. O=c1n(CC2CCN(CCOc3ccccc3)CC2)cnn1CCN1CCOCC1
c. O=c1n(CC2CCN(CCOc3ccccc3)CC2)cnn1CCN1CCN(Cc2cc3ccccc3s2)CC1
Rank the 3 molecules: largest IC50 first, smallest last. Arrange the labels as the request states and list them. b, a, c
(b: 25.1 nM, a: 15.8 nM, c: 2.51 nM)

====

system-tested: human adrenergic-α2A receptor (Homo sapiens, UniProt P08913)
Construct: expressed in transfected cells; membrane preparation
protocol: Radioligand binding experiment for α2A-adrenoceptor ([3H]-raulwolscine competition, CHO cell membranes)
condition-info: [3H]raulwolscine 1 nM, membranes of CHO cells transfected with human α2A receptor; read-out: pIC50 α2A (converted)
assay-endpoint: IC50 (µM)

Field: example entries. Status: answers known.
>  <compound>
O=c1n(-c2ccc(CN3CCOCC3)cc2)cnn1CCNCCOc1ccccc1 [compound 24]

>  <IC50 (µM)>
0.251

$$$$
>  <compound>
O=c1n(-c2ccc(NCCN3CCOCC3)cc2)cnn1CC1CCN(CCOc2ccccc2)CC1

>  <IC50 (µM)>
0.251

$$$$
>  <compound>
CN1CCCN(c2ccc(-n3cnn(CCNCCOc4ccccc4)c3=O)cc2)CC1

>  <IC50 (µM)>
0.126

$$$$
>  <compound>
C/C(=C\c1ccccc1)CN1CCC(Cn2ncn(-c3ccc(CN4CCOCC4)cc3)c2=O)CC1

>  <IC50 (µM)>
0.398

$$$$
>  <compound>
CN1CCCN(c2ccc(-n3cnn(CC4CCN(CCOc5ccccc5)CC4)c3=O)cc2)CC1

>  <IC50 (µM)>
0.0398

$$$$

1. CC(C)N1CCc2cc(-n3cnn(CCNCCOc4ccccc4)c3=O)ccc2C1
2. O=c1n(-c2ccc(CN3CCCC3)cc2)cnn1CCNCCOc1ccccc1
Between 1 and 2 , which one shows the larger IC50 value? Label of pick, please. 1
(1: 0.501 µM, 2: 0.0501 µM)

1. O=c1n(-c2ccc3c(c2)CCN(CCN2CCCC2)C3)cnn1CCNCCOc1ccccc1
2. O=c1n(-c2ccc(N3CCOCC3)cc2)cnn1CC1CCN(CCOc2ccccc2)CC1
3. O=c1n(-c2ccc(CN3CCOCC3)cc2)cnn1CC1CCN(Cc2ccc3ccccc3c2)CC1
4. CN(Cc1ccccc1)Cc1ccc(-n2cnn(CCNCCOc3ccccc3)c2=O)cc1
Rank the 4 compounds: largest IC50 first, smallest last. Arrange the labels as the request states and list them. 3, 2, 1, 4

1. O=c1n(CC2CCN(CCOc3ccccc3)CC2)cnn1CCN1CCN(Cc2cc3ccccc3[nH]2)CC1
2. O=c1n(-c2ccc(CN3CCOCC3)cc2)cnn1CC1CCN(CCOc2ccccc2)CC1
3. O=c1n(-c2ccc(CNCc3ccc(F)cc3)cc2)cnn1CCNCCOc1ccccc1
4. CC(=O)N1CCc2cc(-n3cnn(CCNCCOc4ccccc4)c3=O)ccc2C1
Rank the 4 compounds: largest IC50 first, smallest last. Arrange the labels as the request states and list them. 4, 2, 1, 3

====

system-tested: human adrenergic-α2A receptor (Homo sapiens, UniProt P08913)
Construct: expressed in transfected cells; membrane preparation
Sequence (P08913 1-465): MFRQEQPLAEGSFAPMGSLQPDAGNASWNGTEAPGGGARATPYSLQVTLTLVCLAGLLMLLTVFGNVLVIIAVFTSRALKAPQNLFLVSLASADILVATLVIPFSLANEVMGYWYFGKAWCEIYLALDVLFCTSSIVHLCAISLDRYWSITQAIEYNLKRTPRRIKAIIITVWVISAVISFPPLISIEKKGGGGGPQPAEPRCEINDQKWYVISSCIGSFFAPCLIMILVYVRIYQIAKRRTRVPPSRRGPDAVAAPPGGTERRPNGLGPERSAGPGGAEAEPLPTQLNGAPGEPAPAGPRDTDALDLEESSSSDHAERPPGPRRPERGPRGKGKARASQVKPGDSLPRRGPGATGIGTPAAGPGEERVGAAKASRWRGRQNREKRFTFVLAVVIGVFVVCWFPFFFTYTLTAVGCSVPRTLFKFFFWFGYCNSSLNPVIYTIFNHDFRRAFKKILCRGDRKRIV
protocol: Radioligand binding experiment for α2A-adrenoceptor ([3H]-raulwolscine competition, CHO cell membranes)
condition-info: [3H]raulwolscine 1 nM, membranes of CHO cells transfected with human α2A receptor; read-out: pIC50 α2A (converted)
assay-endpoint: IC50 (nM)

>  <compound>
O=c1n(-c2ccc(N3CCN(Cc4ccccc4)CC3)cc2)cnn1CCNCCOc1ccccc1

>  <system-tested>
human adrenergic-α2A receptor (Homo sapiens, UniProt P08913)

>  <endpoint-unit>
nM

>  <value-measured>
398

$$$$
>  <compound>
COc1ccc(N2CCN(c3ccc(-n4cnn(CCNCCOc5ccccc5)c4=O)cc3)CC2)cc1

>  <system-tested>
human adrenergic-α2A receptor (Homo sapiens, UniProt P08913)

>  <endpoint-unit>
nM

>  <value-measured>
631

$$$$
>  <compound>
O=c1n(-c2ccc(CN3CCN(c4ccccc4)CC3)cc2)cnn1CCNCCOc1ccccc1

>  <system-tested>
human adrenergic-α2A receptor (Homo sapiens, UniProt P08913)

>  <endpoint-unit>
nM

>  <value-measured>
200

$$$$
>  <compound>
O=c1n(-c2ccc(N3CCCCC3)cc2)cnn1CC1CCN(CCOc2ccccc2)CC1

>  <system-tested>
human adrenergic-α2A receptor (Homo sapiens, UniProt P08913)

>  <endpoint-unit>
nM

>  <value-measured>
158

$$$$

a. COc1ccc(N2CCN(c3ccc(-n4cnn(Cc5ccc(CN)cc5)c4=O)cc3)CC2)cc1
b. O=c1n(-c2ccc(NCc3ccc(F)cc3)cc2)cnn1CC1CCN(CCOc2ccccc2)CC1
c. O=c1n(-c2ccc(CNCc3ccccn3)cc2)cnn1CCNCCOc1ccccc1
d. CC(NCCOc1ccccc1)C(C)n1ncn(-c2ccc(N3CCN(c4ccc(O)cc4)CC3)cc2)c1=O (racemic) [compound 5]
Exam item: list the entries in increasing order of IC50. Arrange the labels as the request states and list them. c, b, d, a
(c: 39.8 nM, b: 200 nM, d: 501 nM, a: 7940 nM)
